# TESTED SYSTEM: T1, IL10Rα and IL2Rγ on human primary cells (CD8 T cells, CD4 T cells, monocytes) (human) (UniProt Q13651)
# T1 sequence (looked up) 1: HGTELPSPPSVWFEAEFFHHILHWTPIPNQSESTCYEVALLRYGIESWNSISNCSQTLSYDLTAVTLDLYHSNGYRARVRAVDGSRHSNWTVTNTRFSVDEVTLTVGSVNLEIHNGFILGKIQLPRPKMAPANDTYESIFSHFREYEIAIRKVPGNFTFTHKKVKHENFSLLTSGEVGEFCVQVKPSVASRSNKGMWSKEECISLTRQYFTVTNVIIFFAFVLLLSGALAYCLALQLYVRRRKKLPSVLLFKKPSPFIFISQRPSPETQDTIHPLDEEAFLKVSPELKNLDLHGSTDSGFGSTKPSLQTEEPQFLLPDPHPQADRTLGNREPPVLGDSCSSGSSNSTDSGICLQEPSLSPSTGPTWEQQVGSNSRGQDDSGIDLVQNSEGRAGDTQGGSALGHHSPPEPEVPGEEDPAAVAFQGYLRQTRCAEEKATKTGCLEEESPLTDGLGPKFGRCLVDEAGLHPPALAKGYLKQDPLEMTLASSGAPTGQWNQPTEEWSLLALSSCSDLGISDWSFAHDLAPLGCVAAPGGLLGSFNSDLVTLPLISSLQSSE
# T1 sequence (looked up) 2: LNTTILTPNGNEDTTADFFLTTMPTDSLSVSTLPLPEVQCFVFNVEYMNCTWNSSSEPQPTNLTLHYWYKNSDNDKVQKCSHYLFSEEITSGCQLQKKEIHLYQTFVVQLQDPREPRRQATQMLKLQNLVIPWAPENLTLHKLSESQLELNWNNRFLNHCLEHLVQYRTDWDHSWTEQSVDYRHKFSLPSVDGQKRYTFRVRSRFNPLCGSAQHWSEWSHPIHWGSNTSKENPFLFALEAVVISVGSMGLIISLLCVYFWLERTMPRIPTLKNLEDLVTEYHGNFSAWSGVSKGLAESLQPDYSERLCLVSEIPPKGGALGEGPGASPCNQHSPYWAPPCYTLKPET
# ASSAY REMARKS: cell-based or functional assay
Entries annotated with measured pSTAT3 (MFI) in monocytes at 0.0001 µM
The response must be a number in MFI with no trailing unit.

Check out these entries, answers already filled in.
BINDER: hIL10Ra_VHH14-hIL2Rg_VHH19, linker …, tag his (bispecific antibody, not shown: small tags and cut ends) QVQLQESGGGSVQAGGSLRLSCGASGYTYSSYCMGWFRQVPGKEREGVAVIDSDGSTSYADSVKGRFTISKDNGKNTLYLQMNSLKPEDTAMYYCAADLGHYRPPCGVLYLGMDYWGKGTQVTVSSGGSGGSGGSGQVQLQESGGGSVQAGGSLRLSCTASGFTFDDREMNWYRQAPGNECELVSTISSDGSTYYADSVKGRFTISQDNAKNTVYLQMDSVKPEDTAVYYCAADFMIAIQAPGAGCWGQGTQVTVSS
VALUE OBSERVED: 4230
--
BINDER: hIL10Ra_VHH14-hIL2Rg_VHH19, linker GGSGGS, tag his (bispecific antibody, not shown: small tags and cut ends) QVQLQESGGGSVQAGGSLRLSCGASGYTYSSYCMGWFRQVPGKEREGVAVIDSDGSTSYADSVKGRFTISKDNGKNTLYLQMNSLKPEDTAMYYCAADLGHYRPPCGVLYLGMDYWGKGTQVTVSSGGSGGSQVQLQESGGGSVQAGGSLRLSCTASGFTFDDREMNWYRQAPGNECELVSTISSDGSTYYADSVKGRFTISQDNAKNTVYLQMDSVKPEDTAVYYCAADFMIAIQAPGAGCWGQGTQVTVSS
VALUE OBSERVED: 4220

Kindly consider the entry below.
Query: pSTAT3 (MFI) in monocytes at 0.0001 µM; subject: hIL10Ra_VHH14-hIL2Rg_VHH19, linker GGGS, tag Fc (Fc fusion, not shown: a dimerising Fc or GST) QVQLQESGGGSVQAGGSLRLSCGASGYTYSSYCMGWFRQVPGKEREGVAVIDSDGSTSYADSVKGRFTISKDNGKNTLYLQMNSLKPEDTAMYYCAADLGHYRPPCGVLYLGMDYWGKGTQVTVSSGGGSQVQLQESGGGSVQAGGSLRLSCTASGFTFDDREMNWYRQAPGNECELVSTISSDGSTYYADSVKGRFTISQDNAKNTVYLQMDSVKPEDTAVYYCAADFMIAIQAPGAGCWGQGTQVTVSS
4370
